Experiment: Cell viability assay (CellTiter-Glo), HEK293
Format: cell-based
Details: human, HEK293 cells, read-out: HEK293 (CC50 code)
Description: Culture medium for HEK293—DMEM (PanEco, Cat #C420) was used. RPMI-1640 (PanEco, Cat #C363) was used for the rest of the cell lines. Compounds were prepared as 200× stocks with serial dilution in 100% DMSO with a final concentration of 1×. […] A dilution plate was prepared by pouring 78 μL of the appropriate culture medium using a robotic station Biomek (Beckman). […] After 3 days, 10 μL of CellTiter-Glo (Promega) was added to the cells and the luminescence was measured.
# CC50 at 3 days per record follows

Study these solved cases before continuing.
molecule | CC50 at 3 days
COc1c(C)cnc(CN(C(=O)c2cc(-c3cc4c(cc3C(=O)N3Cc5ccccc5C[C@H]3CN3CCOCC3)OCO4)n3c2CCCC3)c2ccc(O)cc2)c1C | 10 to 25 µM
NC(=O)c1ccc(CN(C(=O)c2cc(-c3cc4c(cc3C(=O)N3Cc5ccccc5C[C@H]3CN3CCOCC3)OCO4)n3c2CCCC3)c2ccc(O)cc2)cc1 | 10 to 25 µM
O=C(c1cc(-c2cc3c(cc2C(=O)N2Cc4ccccc4C[C@H]2CN2CCOCC2)OCO3)n2c1CCCC2)N(Cc1ccccc1Cl)c1ccc(O)cc1 | 10 to 25 µM
O=C(c1cc(-c2cc3c(cc2C(=O)N2Cc4ccccc4C[C@H]2CN2CCOCC2)OCO3)n2c1CCCC2)N(Cc1ccccc1)c1ccc(O)cc1 | > 25 µM
COCCNC(=O)c1cccc(CN(C(=O)c2cc(-c3cc4c(cc3C(=O)N3Cc5ccccc5C[C@H]3CN3CCOCC3)OCO4)n3c2CCCC3)c2ccc(O)cc2)c1 | ≤ 10 µM

Alright, here's another compound for you.
# get_value(readout='CC50 at 3 days', item= COc1ccccc1CN(C(=O)c1cc(-c2cc3c(cc2C(=O)N2Cc4ccccc4C[C@H]2CN2CCOCC2)OCO3)n2c1CCCC2)c1ccc(O)cc1 )
> 25 µM

meta.source: patent US11697650B2
